Kindly state pIC50 for each of the entries shown.
target: Human PDE4B1 (Homo sapiens (Human), UniProt Q07343, S133E/S654A/S659A/S661A); assay: PDE4B1 Scintillation Proximity Assay (SPA), inhibition of enzyme activity; type: biochemical; conditions: Table 10, geometric mean of 2-9 determinations unless otherwise indicated, read-out: Human PDE4B FL
Sequence (Q07343 122-736 S133E/S654A/S659A/S661A): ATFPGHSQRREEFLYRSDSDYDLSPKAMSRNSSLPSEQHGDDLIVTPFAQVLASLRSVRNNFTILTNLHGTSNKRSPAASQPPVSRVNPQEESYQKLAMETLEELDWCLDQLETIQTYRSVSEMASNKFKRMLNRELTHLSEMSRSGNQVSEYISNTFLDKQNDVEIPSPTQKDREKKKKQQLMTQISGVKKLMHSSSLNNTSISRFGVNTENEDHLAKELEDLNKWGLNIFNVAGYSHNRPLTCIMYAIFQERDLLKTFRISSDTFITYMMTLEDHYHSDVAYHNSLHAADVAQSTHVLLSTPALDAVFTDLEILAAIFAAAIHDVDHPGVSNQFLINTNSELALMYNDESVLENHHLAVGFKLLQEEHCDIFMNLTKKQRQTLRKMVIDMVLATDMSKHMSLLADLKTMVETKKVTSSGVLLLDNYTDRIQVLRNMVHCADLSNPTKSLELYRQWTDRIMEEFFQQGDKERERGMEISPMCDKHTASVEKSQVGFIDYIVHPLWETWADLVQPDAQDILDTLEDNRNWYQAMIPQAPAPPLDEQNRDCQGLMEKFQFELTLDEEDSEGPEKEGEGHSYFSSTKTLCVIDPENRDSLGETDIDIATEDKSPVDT
Numbers only, as −log10 of the molar value.

Field: example entries. Status: answers known.
[
  {
    "Compound": "CCCc1ccnc(N2CCn3c(c(-c4ccc(Cl)cc4)c4ncccc43)C2=O)n1 [Example 97]",
    "pIC50": 5.98
  },
  {
    "Compound": "COCCCCCCN1CCn2c(c(-c3ccc(Cl)cc3)c3ncccc32)C1=O [Example 96]",
    "pIC50": 7.01
  }
]

# ---- query compound ----
Given the compound CCNC(=O)N1CCn2c(c(-c3ccc(Cl)cc3)c3ncccc32)C1=O [Example 80] , what is its reported pIC50? 7.18
